A collection of compounds and their measured pIC50
- testTarget: AmpC β-lactamase (Escherichia coli, UniProt P00811)
- Sequence (P00811 20-377): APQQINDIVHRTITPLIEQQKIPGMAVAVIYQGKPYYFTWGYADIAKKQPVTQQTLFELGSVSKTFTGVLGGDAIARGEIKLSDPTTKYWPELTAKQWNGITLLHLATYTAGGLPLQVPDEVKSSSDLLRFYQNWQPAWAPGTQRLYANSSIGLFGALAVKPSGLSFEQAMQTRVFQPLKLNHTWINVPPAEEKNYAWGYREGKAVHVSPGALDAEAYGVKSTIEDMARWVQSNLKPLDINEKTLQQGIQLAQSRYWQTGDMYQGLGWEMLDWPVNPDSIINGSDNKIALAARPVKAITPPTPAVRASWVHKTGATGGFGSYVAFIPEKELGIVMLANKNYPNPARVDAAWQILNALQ
- experimentSummary: AmpC β-lactamase inhibition with and without Triton X-100
- Format: biochemical
- measurementConditions: read-out: AmpC IC50 plus Triton; plus 0.01% Triton X-100; 1% DMSO
pIC50: −log10 of the molar value.
measurementName: pIC50

compound	result
COc1ccc(OC(C)C(=O)N(C)Cc2nc(-c3ccc(OC)cc3)no2)cc1 (stereo not shown) [CHEMBL1508601]	< 3.40
CN(CCC#N)C(=O)c1cc2c(s1)-c1ccccc1SC2 [CHEMBL1565380]	< 3.40
C=CCOC(=O)c1[nH]c2c(c1C)C(=O)CC(c1ccco1)C2 (stereo not shown) [CHEMBL1359872]	< 4.00
CCOC(=O)c1c(-c2ccc(C)o2)csc1NC(=O)CSc1ncn[nH]1 [CHEMBL1347854]	< 4.00
Cc1ccccc1OCC(=O)Nc1ccc(-c2nc3cc(Cl)ccc3o2)cc1 [CHEMBL261275]	< 4.00
Cc1cc(NS(=O)(=O)c2ccc(NC(=O)COc3c(C)cc(Br)cc3C)cc2)no1 [CHEMBL1333273]	< 3.40
Nc1sc2c(c1C(=O)c1ccc(Cl)cc1)CCCC2 [CHEMBL57997]	< 4.00

* * *

- experimentSummary: Particle formation by dynamic light scattering
- Assay type: physicochemical
- measurementConditions: dynamic light scattering
measurementName: DLS detected (concentration at which particles were detected) (µM)

smilesString	units	numericReadout
Cc1ccc(-c2noc(CN(C(=O)C(c3ccccc3)c3ccccc3)C(C)C)n2)cc1	µM	20
Nc1sc2c(c1C(=O)c1ccc(Cl)cc1)CCCC2	µM	21
CCOC(=O)c1c(-c2ccc(C)o2)csc1NC(=O)CSc1ncn[nH]1	µM	10
